Data origin: ChEMBL document CHEMBL4602660

Kindly state inhibition for each of the entries shown.
- subject of test: Maternal embryonic leucine zipper kinase (Homo sapiens)
- assay details: Inhibition of GST tagged human MELK expressed in baculovirus expression system at 10 uM after 1 hr by Z'-LYTE assay relative to control
One number for each entry, in %.

| smi | subject of test | inhibition / % |
| --- | --- | --- |
| O=C(OC[C@H]1O[C@@H](n2cnc3c(=O)[nH]cnc32)[C@H](O)[C@@H]1O)c1ccc[nH]1 | Maternal embryonic leucine zipper kinase (Homo sapiens) | 97 |
| Nc1ncnc2c1ncn2[C@@H]1O[C@H](COC(=O)c2cc[nH]c2)[C@@H](O)[C@H]1O | Maternal embryonic leucine zipper kinase (Homo sapiens) | 98 |
| Nc1nc2c(ncn2[C@@H]2O[C@H](COC(=O)c3cc[nH]c3)[C@@H](O)[C@H]2O)c(=O)[nH]1 | Maternal embryonic leucine zipper kinase (Homo sapiens) | 87 |
| Nc1ncnc2c1ncn2[C@@H]1O[C@H](COC(=O)c2ccc[nH]2)[C@@H](O)[C@H]1O | Maternal embryonic leucine zipper kinase (Homo sapiens) | 95 |
| O=C(OC[C@H]1O[C@@H](n2cnc3c(=O)[nH]cnc32)[C@H](O)[C@@H]1O)c1cc[nH]c1 | Maternal embryonic leucine zipper kinase (Homo sapiens) | 97 |

Moving on to the next compound.
**Q:** Item under review: Nc1nc2c(ncn2[C@@H]2O[C@H](COC(=O)c3ccc[nH]3)[C@@H](O)[C@H]2O)c(=O)[nH]1 . Reported inhibition?
**A:** 96

###

- subject of test: Glycogen synthase kinase-3 beta (Homo sapiens) (UniProt P49841)
- Sequence (P49841 whole entry, looked up): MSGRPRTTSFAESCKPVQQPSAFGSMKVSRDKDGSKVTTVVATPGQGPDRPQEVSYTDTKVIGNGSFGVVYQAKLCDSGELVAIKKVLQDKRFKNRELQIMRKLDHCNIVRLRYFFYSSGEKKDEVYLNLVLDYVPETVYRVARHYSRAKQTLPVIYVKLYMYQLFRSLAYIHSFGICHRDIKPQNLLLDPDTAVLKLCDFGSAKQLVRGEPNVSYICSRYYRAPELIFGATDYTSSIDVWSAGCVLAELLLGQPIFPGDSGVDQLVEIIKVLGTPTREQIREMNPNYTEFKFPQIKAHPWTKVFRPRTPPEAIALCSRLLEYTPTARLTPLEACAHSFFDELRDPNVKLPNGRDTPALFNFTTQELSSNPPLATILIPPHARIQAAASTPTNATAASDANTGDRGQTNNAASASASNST
- assay details: Inhibition of N-Terminal His tagged human GSK3B expressed in baculovirus expression system at 10 uM after 1 hr by Z'-LYTE assay relative to control
readout label: inhibition (%)
Numbers only, in %.

For every listed record, write down its inhibition.
1. Nc1nc2c(ncn2[C@@H]2O[C@H](COC(=O)c3cc[nH]c3)[C@@H](O)[C@H]2O)c(=O)[nH]1
2. Nc1nc2c(ncn2[C@@H]2O[C@H](COC(=O)c3ccc[nH]3)[C@@H](O)[C@H]2O)c(=O)[nH]1
3. O=C(OC[C@H]1O[C@@H](n2cnc3c(=O)[nH]cnc32)[C@H](O)[C@@H]1O)c1cc[nH]c1
4. O=C(OC[C@H]1O[C@@H](n2cnc3c(=O)[nH]cnc32)[C@H](O)[C@@H]1O)c1ccc[nH]1
5. Nc1ncnc2c1ncn2[C@@H]1O[C@H](COC(=O)c2ccc[nH]2)[C@@H](O)[C@H]1O
6. Nc1ncnc2c1ncn2[C@@H]1O[C@H](COC(=O)c2cc[nH]c2)[C@@H](O)[C@H]1O

**A:**
1. 96
2. 98
3. 99
4. 94
5. 100
6. 98

###

- subject of test: MAP kinase-activated protein kinase 3 (Homo sapiens) (UniProt Q16644)
- Sequence (Q16644 whole entry, looked up): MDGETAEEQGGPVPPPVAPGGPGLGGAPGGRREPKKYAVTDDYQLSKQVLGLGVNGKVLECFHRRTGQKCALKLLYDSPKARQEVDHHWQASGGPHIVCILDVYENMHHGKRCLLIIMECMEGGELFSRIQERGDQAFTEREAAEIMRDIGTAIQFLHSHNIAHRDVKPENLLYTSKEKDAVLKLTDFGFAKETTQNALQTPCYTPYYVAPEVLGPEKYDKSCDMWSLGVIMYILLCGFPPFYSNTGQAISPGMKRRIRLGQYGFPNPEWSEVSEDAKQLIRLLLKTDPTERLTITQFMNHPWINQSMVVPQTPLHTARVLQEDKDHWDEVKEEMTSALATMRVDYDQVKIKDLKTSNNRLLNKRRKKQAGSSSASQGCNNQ
- assay details: Inhibition of His-tagged human MAPKAPK3 expressed in baculovirus expression system at 10 uM after 1 hr by Z'-LYTE assay relative to control
Exercise: state measured inhibition for each of the molecules provided.
Answers are plain numbers, in %.

Study these solved cases before continuing.
| smi | inhibition [%] |
| --- | --- |
| Nc1nc2c(ncn2[C@@H]2O[C@H](COC(=O)c3cc[nH]c3)[C@@H](O)[C@H]2O)c(=O)[nH]1 | 99 |
| Nc1ncnc2c1ncn2[C@@H]1O[C@H](COC(=O)c2ccc[nH]2)[C@@H](O)[C@H]1O | 98 |
| O=C(OC[C@H]1O[C@@H](n2cnc3c(=O)[nH]cnc32)[C@H](O)[C@@H]1O)c1ccc[nH]1 | 83 |
| Nc1nc2c(ncn2[C@@H]2O[C@H](COC(=O)c3ccc[nH]3)[C@@H](O)[C@H]2O)c(=O)[nH]1 | 101 |
| O=C(OC[C@H]1O[C@@H](n2cnc3c(=O)[nH]cnc32)[C@H](O)[C@@H]1O)c1cc[nH]c1 | 100 |

Alright, here's another molecule for you.
**Q:** Look up inhibition: Nc1ncnc2c1ncn2[C@@H]1O[C@H](COC(=O)c2cc[nH]c2)[C@@H](O)[C@H]1O
**A:** 98
